target: C5aR extracellular N-terminus polypeptide (UniProt P21730); experiment: ELISA, polypeptide coated at 1.0 µg/mL
Under this convention, Criterion met denotes OD450 nm strictly below 0.2 OD450 nm and Criterion not met denotes OD450 nm at or above 0.2 OD450 nm.

Solved entries:
[
  {
    "binder": "2A12B2B2 (antibody, V domains shown) VH: QVQLQQPGADLVKPGASVKMSCKASGYILTTYWITWVKQRPGQGLEWIGDIHPGSGSTKYNEKFKSKATLTVDTSSSTAYMQLTRLSSEDSAVYYCARRDYWGQGTTLTVSS VL: DIQMTQTTSSLSASLGDKVTISCRASQDISNYLSWYQQKPDGTVKLLIYWISRLHSGVPSRFSGSGSGTDFSLTISNLEQEDIATYFCQQGNSLPPTFGGGTKLEVK",
    "assigned category": "Criterion met"
  },
  {
    "binder": "43E8F5B6 (antibody, V domains shown) VH: EVQLQQSGPELVKPGASVKISCKASGYTFTDYYMSWMKQSHGKSLEWIGDINPNNGDNIYNQKFKGKATLTVDRSSSTAYMDLRSLTSEDSAVYYCARWYYYVSSFSYWYFDVWGTGTTVTVSS VL: EIVLTQSPTTMAASPGEKITITCSATSSINSNYLHWYQQKPGFSPKLLIYRTSNLASGVPARFSGSGSGTSYSLTIGTMEAEDVATYYCQQGRTIPRTFGSGTKLEIK",
    "assigned category": "Criterion met"
  },
  {
    "binder": "9D5A12G7 (antibody, V domains shown) VH: QVQLKQSGPGLVQPSQSLSITCTVSGFSLTSYGVHWVRQSPGKGLEWLGVIWSGGSTDYNAAFISRLSISKDNSKSQVFFKMNSLQADDTAIYYCARNGLLGNAMDYWGQGTSVTVSS VL: DIVMSQSPSSLAVSAGEKVTMSCKSSQSLLSSRTRKNYLAWYQQKPGQSPKLLIYWASTRESGVPDRFTGSGSGTDFTLTISSVQTEDLAVYYCKQSYNLLTFGAGTTLELK",
    "assigned category": "Criterion met"
  },
  {
    "binder": "8B5D1A9 (antibody, V domains shown) VH: QVQLKQSGAELVKPGASVKISCKTSGYIFTDYYINWMKQRPGQGLEWIGKIGPGSGTTFYNEKFKGKATLTADKSSTTLYMQLSSLTAEDSAVYFCTRRGYYSSSYFYWGQGTTLTVSS VL: DIVMTQSPSSLSVSAGEKVIMSCKSSQSLLNSERQKNYLAWYQQKPGQSPKLLIYGASTRESGVPDRFTGSGSGTDFTLTISSVQAEDLAVYYCLNDHSYPLTFGAGTKLELK",
    "assigned category": "Criterion not met"
  }
]

Could you now look at the following binder, please?
Ask: Does the reported OD450 nm of 5F8E2C11 (antibody, V domains shown) VH: QVQLRQSGPGLVQPSQSLSITCTVSGFSLTSYGVHWVRQSPGKGLEWLGVIWSGGSTDYNAAFISRLSISKDYSKSQIFLTMNSLQTDDTAIYYCARNSRLGNCFDYWGQGTTLTVSS VL: DIVMSQSPSSLAVSAGEKVTMSCKSSQSLLNSRTRKNYLAWYQQKPGQSPKLLIYWASTRESGVPDRFTGSGSGTDFTLTISSVQAEDLAVYYCKQSYNLPAFGGGTKLEIK stay below 0.2 OD450 nm?
Reply: Criterion not met
